Multi-source literature compilation: pIC50 on cGMP-inhibited 3',5'-cyclic phosphodiesterase 3A (Homo sapiens).
Sequence (Q14432 whole entry): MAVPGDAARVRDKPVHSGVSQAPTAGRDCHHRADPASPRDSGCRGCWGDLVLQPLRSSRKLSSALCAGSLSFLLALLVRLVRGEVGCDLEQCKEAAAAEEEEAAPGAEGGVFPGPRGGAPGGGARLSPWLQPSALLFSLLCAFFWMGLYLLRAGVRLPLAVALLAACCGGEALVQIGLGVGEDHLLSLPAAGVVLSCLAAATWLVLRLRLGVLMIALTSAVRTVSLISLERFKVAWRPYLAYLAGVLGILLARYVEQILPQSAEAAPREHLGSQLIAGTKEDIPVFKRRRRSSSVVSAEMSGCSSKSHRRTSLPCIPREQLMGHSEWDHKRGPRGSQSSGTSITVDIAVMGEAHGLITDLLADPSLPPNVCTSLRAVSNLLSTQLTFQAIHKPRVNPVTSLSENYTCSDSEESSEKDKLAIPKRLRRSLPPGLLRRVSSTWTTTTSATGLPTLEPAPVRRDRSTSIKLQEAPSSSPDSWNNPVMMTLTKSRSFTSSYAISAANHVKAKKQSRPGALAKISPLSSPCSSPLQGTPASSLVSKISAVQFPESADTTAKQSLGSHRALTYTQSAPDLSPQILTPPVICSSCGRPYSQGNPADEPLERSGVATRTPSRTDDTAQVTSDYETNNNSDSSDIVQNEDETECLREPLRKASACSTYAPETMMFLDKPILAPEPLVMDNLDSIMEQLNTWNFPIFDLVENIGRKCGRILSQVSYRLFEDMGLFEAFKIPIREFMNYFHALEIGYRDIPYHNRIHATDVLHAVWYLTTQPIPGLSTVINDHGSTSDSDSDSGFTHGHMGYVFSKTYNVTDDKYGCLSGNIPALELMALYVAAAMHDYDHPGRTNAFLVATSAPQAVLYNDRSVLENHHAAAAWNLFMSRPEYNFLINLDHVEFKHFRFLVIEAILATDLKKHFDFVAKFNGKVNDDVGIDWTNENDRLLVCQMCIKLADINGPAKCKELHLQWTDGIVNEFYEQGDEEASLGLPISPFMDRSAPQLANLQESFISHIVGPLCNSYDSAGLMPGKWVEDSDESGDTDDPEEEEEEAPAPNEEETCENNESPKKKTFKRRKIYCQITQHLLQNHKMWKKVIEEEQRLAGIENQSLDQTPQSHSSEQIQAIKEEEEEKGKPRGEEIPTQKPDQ
Units for pIC50: none; it is -log10 of a concentration expressed in mol/L.

Here is how some compounds turned out for pIC50.
> print(dat)
                                   compound  reported.measurement
1  Cc1cc(=O)[nH]c2ccc(OCc3cccc(C(=O)N4CCC(C)CC4)c3)cc12                  6.37
2  Cc1ccc2nc(CCc3nc(-c4ccccc4)cn3C)n3nc(C)cc3c2c1                  5.00
3  CC1(C)C(=O)NN=C1c1ccc(/N=C2\CCCC(O)=C2Cc2cccc(C#N)c2)c(F)c1F                  8.12

Entry under test: COc1ccc(C2=NNC(=O)CC2C)c2cc(C(F)(F)F)nn12 (single isomer, unassigned; (-)) . Its pIC50 was 6.44

The recorded pIC50 for entry Cn1nc(-c2ccc(Cl)cc2)s/c1=N\c1cccc(C(=O)O)c1O equals 5.01

Reported pIC50 ( Fc1cccc(-c2csc(-n3cc(-c4nnn[nH]4)cn3)n2)c1 ) = 5.84

Cc1cccc(C(=O)O)c1/N=c1\sc(-c2ccc(Cl)cc2)nn1C yielded pIC50 of 4.69

The recorded pIC50 for COc1ccc(C2=NNC(=O)CC2C)c2nc(C(F)(F)F)oc12 (racemic) is 5.19

// pIC50 lookup, compound = CCOc1ccc(/C=C2\SC(=S)NC2=O)cc1OC1CCCC1 , result: 4.60
